system: Aphis Fabae, Mixed Instar, Bean Aphid (BA); test: Bean aphid (BA) foliar spray test, mortality after 2 days; assay type: in vivo; settings: rating scale
quantity.kind: BA AD-FOLIAR 300 (ppm)

Here's what some known entries look like.
[[record]]
compound = "Fc1cc(F)cc(-c2ccnc(Oc3cccc(C(F)(F)F)c3)n2)c1 [Compound 61]"
target_desc = "Aphis Fabae, Mixed Instar, Bean Aphid (BA)"
reported_measurement = "C (C 76-100% kill)"

[[record]]
compound = "O=[N+]([O-])c1ccc(Oc2nccc(-c3ccc(C(F)(F)F)cc3)n2)cc1C(F)(F)F [Compound 33]"
target_desc = "Aphis Fabae, Mixed Instar, Bean Aphid (BA)"
reported_measurement = "B (B 45-75% kill)"

[[record]]
compound = "FC(F)(F)c1cccc(Oc2nccc(-c3ccccc3)n2)c1 [Compound 5]"
target_desc = "Aphis Fabae, Mixed Instar, Bean Aphid (BA)"
reported_measurement = "A (A 0-45% kill)"

[[record]]
compound = "CC(C)(C)c1ccc(-c2ccnc(Oc3ccc(Cl)c(Cl)c3)n2)cc1 [Compound 27]"
target_desc = "Aphis Fabae, Mixed Instar, Bean Aphid (BA)"
reported_measurement = "B (B 45-75% kill)"

[[record]]
compound = "FC(F)(F)Oc1cccc(-c2ccnc(Oc3ccc(Cl)c(Cl)c3)n2)c1 [Compound 43]"
target_desc = "Aphis Fabae, Mixed Instar, Bean Aphid (BA)"
reported_measurement = "C (C 76-100% kill)"

[[record]]
compound = "Fc1ccc(Oc2nccc(-c3cccc(C(F)(F)F)c3)n2)cc1C(F)(F)F [Compound 21]"
target_desc = "Aphis Fabae, Mixed Instar, Bean Aphid (BA)"
reported_measurement = "A (A 0-45% kill)"


Consider the following items and state reported BA AD-FOLIAR 300 (ppm) for each.
1. CC(C)(C)c1ccc(-c2ccnc(Oc3ccc(F)c(C(F)(F)F)c3)n2)cc1 [Compound 24]
2. O=[N+]([O-])c1ccc(-c2ccnc(Oc3cccc(C(F)(F)F)c3)n2)cc1 [Compound 9]

Reply text:
A (A 0-45% kill)
B (B 45-75% kill)

Consider the following items and state reported BA AD-FOLIAR 300 (ppm) for each.
1. FC(F)(F)Oc1ccc(-c2ccnc(Oc3cc(C(F)(F)F)cc(C(F)(F)F)c3)n2)cc1 [Compound 45]
2. Fc1cc(-c2ccnc(Oc3ccc(Cl)c(Cl)c3)n2)cc(C(F)(F)F)c1 [Compound 58]
3. CCc1ccc(-c2ccnc(Oc3ccc(F)c(Cl)c3)n2)cc1 [Compound 13]
4. FC(F)(F)c1ccc(-c2ccnc(Oc3cccc(C(F)(F)F)c3)n2)cc1 [Compound 30]
5. Fc1ccc(Oc2nccc(-c3ccc(C(F)(F)F)cc3)n2)cc1C(F)(F)F [Compound 29]
6. Fc1cc(-c2ccnc(Oc3ccc(F)c(C(F)(F)F)c3)n2)cc(C(F)(F)F)c1 [Compound 53]
7. Fc1ccc(Oc2nccc(-c3cccc(OC(F)(F)F)c3)n2)cc1C(F)(F)F [Compound 37]

Reply text:
1: C (C 76-100% kill); 2: C (C 76-100% kill); 3: C (C 76-100% kill); 4: A (A 0-45% kill); 5: A (A 0-45% kill); 6: C (C 76-100% kill); 7: A (A 0-45% kill)

Consider the following items and state reported BA AD-FOLIAR 300 (ppm) for each.
1. O=[N+]([O-])c1ccc(Oc2nccc(-c3ccc(OC(F)(F)F)cc3)n2)cc1C(F)(F)F [Compound 49]
2. Fc1cc(F)cc(-c2ccnc(Oc3ccc(F)c(C(F)(F)F)c3)n2)c1 [Compound 62]
3. Fc1ccc(Oc2nccc(-c3ccc(OC(F)(F)F)cc3)n2)cc1C(F)(F)F [Compound 47]
4. FC(F)(F)Oc1ccc(-c2ccnc(Oc3cccc(C(F)(F)F)c3)n2)cc1 [Compound 48]
5. CC(C)(C)c1ccc(-c2ccnc(Oc3ccc(Cl)c(C(F)(F)F)c3)n2)cc1 [Compound 25]
6. Fc1ccc(-c2ccnc(Oc3cccc(C(F)(F)F)c3)n2)cc1C(F)(F)F [Compound 71]

Reply text:
1. B (B 45-75% kill)
2. B (B 45-75% kill)
3. A (A 0-45% kill)
4. B (B 45-75% kill)
5. A (A 0-45% kill)
6. C (C 76-100% kill)
